# Tested on: OVCAR-8 ovarian
# assayComment: NCI-60 one-dose screen, 48 h (100 = growth as untreated, 0 = no growth, -100 = all killed)
# studyConditions: 10 µM unless noted
This is part of a sample that, as a whole, favours compounds with a hit. Of some 83,000 tested, about 20% had one in any assay.
observationType: growth (%)
Give just the numeric value; % need not be written.

compound	growth, %
Cc1nc(-c2ccccc2)cc2c(O)c(C(=O)NN)[nH]c(=O)c12	106
C=C(CNCCc1ccc(O)cc1)[C@@H]1CC[C@]2(CO)CC[C@]3(C)[C@H](CC[C@@H]4[C@@]5(C)CCC(NCCO)C(C)(C)[C@@H]5CC[C@]43C)[C@@H]12 (stereo not given in full)	-49.7

Please state recorded growth (tested on OVCAR-8 ovarian) of CCCCCCC1(C)NCCO1 (stereo not given) 96.6

Please state recorded growth (tested on OVCAR-8 ovarian) of CN1C(=O)N(C)C2Nn3c(s/c(=C\c4ccc(C(F)(F)F)cc4)c3=O)=NC21 (stereo not given) 108

Please state recorded growth (tested on OVCAR-8 ovarian) of O=S(=O)(NCCNc1nccc(-c2c(-c3cccc(F)c3)nc3occn23)n1)c1ccc(Br)cc1 80.2

====

# Tested on: SK-MEL-28 melanoma
# assayComment: NCI-60 one-dose screen, 48 h (100 = growth as untreated, 0 = no growth, -100 = all killed)
# studyConditions: 10 µM unless noted
This is part of a sample that, as a whole, favours compounds with a hit. Of some 83,000 tested, about 20% had one in any assay.
observationType: growth (%)
Give just the numeric value; % need not be written.

molSmiles	valueObserved
Cn1c(O)c(C=NCCN=Cc2c(O)n(C)c(=O)n(C)c2=O)c(=O)n(C)c1=O	109
COc1ccc(OC)c(C(=O)/C=C/c2cc3c(c(OC)c2OC)OCO3)c1	89.7
COc1cc(CNC(=O)/C=C/C=C/c2ccc3c(c2)OCO3)ccc1OCc1cn(-c2ccc(C)c(C)c2)nn1	54.1

Switching to the query record.
Would you kindly share the measured growth for O=C1c2c(c3c4ccccc4[nH]c3c3ccc4ccccc4c23)C(=O)N1CCN1CCCCC1 ? 98.1

====

# System: NCI/ADR-RES ovarian
# assayComment: NCI-60 one-dose screen, 48 h
# studyConditions: 10 µM unless noted
The panel holds about 83,000 compounds, 20% with a hit somewhere; the sample as a whole holds those more often. Activity calls are given as the source filed them. How the source made its calls: active means growth percent below 10; inactive means the rest.
Select the matching outcome among active, inactive

As a guide, the following entries are already answered.
molecule	systemName	assignedLabel
COC(=O)c1cc(-c2ccccc2)[nH]c1N/N=C/c1c(Cl)cccc1Cl	NCI/ADR-RES ovarian	active
CN1CCN(Cc2ccc(NC(=O)c3cncc(C#Cc4cnc(N)c5ccccc45)c3)cc2C(F)(F)F)CC1	NCI/ADR-RES ovarian	active
O=C1/C(=C/c2ccc(F)cc2)COc2ccc(O)c(O)c21	NCI/ADR-RES ovarian	active
C/C(=N\NC(=O)c1ccccc1O)c1cccc(/C(C)=N/NC(=O)c2ccccc2O)n1	NCI/ADR-RES ovarian	inactive
O=c1oc2c(cnc3ccccc32)cc1-c1ccsc1	NCI/ADR-RES ovarian	inactive
CN1CCN(C(=O)OCc2ccc3c(Cl)cc(Cl)c(O)c3n2)CC1	NCI/ADR-RES ovarian	inactive

Give the logged outcome of this assay for the following molecule: CC(=O)OCc1nc(C#N)c(N(C)C)o1 inactive

Give the logged outcome of this assay for the following molecule: COc1ccc(/C(C)=C(/c2ccc(OCCCN(C)C)cc2)c2ccc(OC(=O)Cc3ccccc3)cc2)cc1 inactive

Give the logged outcome of this assay for the following molecule: COc1cccc(CNc2ncnc3c2ncn3C2OC(CO)C(O)C2O)c1O (stereo not given) active

Give the logged outcome of this assay for the following molecule: O=C(O)CNC1=C(Cl)C(=O)c2ccccc2C1=O inactive

====

# System: NCI-H226 lung
# assayComment: NCI-60 one-dose screen, 48 h
# studyConditions: 10 µM unless noted
This is part of a sample that, as a whole, favours compounds with a hit. Of some 83,000 tested, about 20% had one in any assay. The source made the active and inactive calls. The calls were made as follows: active = growth percent below 10; inactive = the rest.
Select the matching outcome among t = active, f = inactive

As a guide, the following entries are already answered.
compound	assignedLabel
COc1ccc(OC)c(-c2c(C#N)c(-c3cccs3)nc3c2c(-c2ccccc2)nn3-c2ccccc2)c1	f
O=C1/C(=C/c2ccc(F)cc2)COc2ccc(O)cc21	f
N#Cc1c(NC(=O)c2ccccc2)sc2c1CCC(=O)C2	f

Give the logged outcome of this assay for the following compound: O=C(Nc1nc2ccc(F)cc2s1)c1cccnc1Nc1ccc(Cl)cc1 f

Give the logged outcome of this assay for the following compound: Cc1ccc(/C=C2\CN(C(=O)OC(C)(C)C)C/C(=C\c3ccc(C)cc3)C2=O)cc1 f

====

# Test system: HCT-15 colon
# assayComment: NCI-60 one-dose screen, 48 h
# studyConditions: 10 µM unless noted
Compounds without any hit were thinned out: in the full panel of roughly 83,000, 20% have a hit. The source made the active and inactive calls. How the source made its calls: active means growth percent below 10; inactive means the rest.
Select the matching outcome among class 1 (active), class 0 (inactive)

As a guide, the following entries are already answered.
compound	assignedLabel
Cn1cc(-c2csc(-c3ccc(Cl)cc3)n2)c2cccnc21	class 1
Cc1cc(=O)[nH]c2c(C#N)cnn12	class 0
N#C/C(=C\c1ccc2ccccc2c1)c1cc2ccccc2[nH]1	class 0
C/C(=C(/c1ccc(Cl)cc1)c1ccc(OCCN2CCCC2)cc1)c1ccc(Cl)cc1	class 0
OB(O)c1cccc(-c2nc3ccc4[nH]ncc4c3c3c2CCCC3)c1	class 0
CN(Cc1ccc(C(F)(F)F)cc1)CC(O)C(=O)Nc1ccc(Cl)cc1 (stereo unspecified)	class 1
COc1ccc(C(=O)C2C(c3ccc(OC)cc3)CN(C)C23C(=O)Nc2ccccc23)cc1 (stereo unspecified)	class 0
Fc1cc(F)cc(C(c2c[nH]c3ccccc23)c2c[nH]c3ccccc23)c1	class 0

Give the logged outcome of this assay for the following compound: N#CC1=C(N)Oc2c(sc3c(Br)cccc23)C1c1ccc(F)cc1 (stereo unspecified) class 0

Give the logged outcome of this assay for the following compound: Cn1cc(-c2nonc2-c2c[nH]c3ccc(Br)cc23)c2cc(Br)ccc21 class 0

Give the logged outcome of this assay for the following compound: Cc1nc2sc(C(=O)Nc3ccccc3)c(N)c2cc1C(=O)c1ccccc1 class 0

Give the logged outcome of this assay for the following compound: CN1CCN(C(=O)OCc2ccc3c(Cl)cc(Cl)c(O)c3n2)CC1 class 0

Give the logged outcome of this assay for the following compound: O=C(NNc1nccc(Nc2ccc(S(=O)(=O)Nc3ccncc3)cc2)n1)c1ccccc1 class 0

Give the logged outcome of this assay for the following compound: COc1cc(CNS(=O)(=O)c2ccc(C)cc2)ccc1OCc1cn(-c2ccc(F)cc2)nn1 class 0

Give the logged outcome of this assay for the following compound: CCS/C(Nc1ccccc1)=C(\C#N)C(=O)N/N=C/c1ccc(Cl)cc1Cl class 0

Give the logged outcome of this assay for the following compound: CN[C@]12CC3(C=CC(=O)C=C3)O[C@@]1(Cc1ccc(OC)cc1)N(C)C(=O)N2 class 1

Give the logged outcome of this assay for the following compound: CCOC(=O)c1nc(Nc2ccc(NC(=O)Nc3ccc(F)cc3)cc2)c2ccccc2n1 class 0

Give the logged outcome of this assay for the following compound: OCCCC1CCN(C(Cc2ccccc2)c2ccccc2)CC1 (stereo unspecified) class 0

Give the logged outcome of this assay for the following compound: CC1=NN(c2nc(SCC(=O)Nc3nc4ccc(C)cc4s3)nc(-c3ccccc3)c2C#N)C(=O)C1 class 0

Give the logged outcome of this assay for the following compound: CC1Cc2c(Cl)ncnc2N(C)c2ccc(F)cc21 (stereo unspecified) class 0

Give the logged outcome of this assay for the following compound: Clc1ccc(Nc2nnc(COc3ccccc3)c3ccccc23)cc1 class 1

Give the logged outcome of this assay for the following compound: O=C1/C(=C\c2cn(-c3ccccc3)nc2-c2ccc(-c3cccs3)cc2)CCc2ccccc21 class 0

====

# Test system: HS 578T breast
# assayComment: NCI-60 one-dose screen, 48 h (100 = growth as untreated, 0 = no growth, -100 = all killed)
# studyConditions: 10 µM unless noted
This is part of a sample that, as a whole, favours compounds with a hit. Of some 83,000 tested, about 20% had one in any assay.
observationType: growth (%)
Give just the numeric value; % need not be written.

compound	growth [%]
COCCn1c(-c2csc(-c3cn(C)c4ccc(OC)cc34)n2)cc2cccnc21	58.5

Switching to the query record.
Would you kindly share the measured growth for COc1cc(-c2cc(-c3cccs3)c(C#N)c(N3CCOCC3)n2)cc(OC)c1OC ? 90.6

====

growth values by entry
# Tested on: A549/ATCC NSCLC
# assayComment: NCI-60 one-dose screen, 48 h (100 = growth as untreated, 0 = no growth, -100 = all killed)
# studyConditions: 10 µM unless noted
About 83,000 compounds went through this panel and 20% of them were active in at least one assay; those are over-represented in the sample as a whole.
Give just the numeric value; % need not be written.

molecule	valueObserved
CCN1C(=O)N(CC)C2C1NN=c1s/c(=C\c3cccc([N+](=O)[O-])c3)c(=O)n12 (stereo not given)	20.2

Please state recorded growth (tested on A549/ATCC NSCLC) of CCN(CC)CCOc1ccc(-c2c(-c3ccccc3)c(=O)oc3ccccc23)cc1 92
